EXPERIMENTAL_DETAILS: Cytotoxicity assay (CellTiter 96 AQueous One) on Hs27
Format: cell-based, human
STUDY_CONDITIONS: human, Hs27 normal skin cells; Hs27, 24 h, 50 µM; dose 0 = 100.00; read-out: Growth inhibition data
ENDPOINT_LABEL: viability at 24 h, 50 µM (%)
Just the number in %, nothing appended.

Data request: # query: viability at 24 h, 50 µM of entry CC(=NNC(N)=S)c1cccs1
Data returned: 100

---

EXPERIMENTAL_DETAILS: Cytotoxicity assay (CellTiter 96 AQueous One) on Hs27
Assay type: cell-based, human
STUDY_CONDITIONS: human, Hs27 normal skin cells; Hs27, 24 h, 10 µM; dose 0 = 100.00; read-out: Growth inhibition data
ENDPOINT_LABEL: viability at 24 h, 10 µM (%)
Record the value in %, omitting the unit from your answer.

Data request: // returns reported viability at 24 h, 10 µM for input CC(=NNC(N)=S)c1cccs1
Data returned: 97.7

---

EXPERIMENTAL_DETAILS: Cytotoxicity assay (CellTiter 96 AQueous One) on Hs27
Format: cell-based, human
STUDY_CONDITIONS: human, Hs27 normal skin cells; Hs27, 24 h, 1 µM; dose 0 = 100.00; read-out: Growth inhibition data
ENDPOINT_LABEL: viability at 24 h, 1 µM (%)
Just the number in %, nothing appended.

Data request: Fill blank: measured viability at 24 h, 1 µM of the compound CC(=NNC(N)=S)c1cccs1 is ____.
Data returned: 97

---

EXPERIMENTAL_DETAILS: Cytotoxicity assay (CellTiter 96 AQueous One) on Hs27
Assay type: cell-based, human
STUDY_CONDITIONS: human, Hs27 normal skin cells; Hs27, 24 h, 0.5 µM; dose 0 = 100.00; read-out: Growth inhibition data
ENDPOINT_LABEL: viability at 24 h, 0.5 µM (%)
Use % as the unit, but write only the number.

Data request: What value of viability at 24 h, 0.5 µM has been reported for the following compound? CC(=NNC(N)=S)c1cccs1
Data returned: 99.9

---

EXPERIMENTAL_DETAILS: Cytotoxicity assay (CellTiter 96 AQueous One) on U937
Format: cell-based, human
STUDY_CONDITIONS: human, U937 cells (hematological tumor line); U937, 24 h, 5 µM; dose 0 = 100.00; read-out: Growth inhibition data
ENDPOINT_LABEL: viability at 24 h, 5 µM (%)
Give the quantity in %, number only.

Data request: For the compound CC(=NNC(N)=S)c1cccs1 , what viability at 24 h, 5 µM is on record?
Data returned: 100

---

EXPERIMENTAL_DETAILS: Cytotoxicity assay (CellTiter 96 AQueous One) on U937
Type: cell-based, human
STUDY_CONDITIONS: human, U937 cells (hematological tumor line); U937, 24 h, 0.5 µM; dose 0 = 100.00; read-out: Growth inhibition data
ENDPOINT_LABEL: viability at 24 h, 0.5 µM (%)
Dear colleague, please return just the value in %, with no unit written.

Data request: // viability at 24 h, 0.5 µM lookup, key: CC(=NNC(N)=S)c1cccs1
Data returned: 100

---

EXPERIMENTAL_DETAILS: Cytotoxicity assay (CellTiter 96 AQueous One) on HFL1
Type: cell-based, human
STUDY_CONDITIONS: human, HFL1 normal lung cells; HFL1, 24 h, 5 µM; dose 0 = 100.00; read-out: Growth inhibition data
ENDPOINT_LABEL: viability at 24 h, 5 µM (%)
Output spec: scalar in %, unitless text.

Data request: What value of viability at 24 h, 5 µM has been reported for the following compound? CC(=NNC(N)=S)c1cccs1 [2-actpTS, 2-acetylthiophenethiosemicarbazone]
Data returned: 100

---

EXPERIMENTAL_DETAILS: Cytotoxicity assay (CellTiter 96 AQueous One) on HFL1
Type: cell-based, human
STUDY_CONDITIONS: human, HFL1 normal lung cells; HFL1, 24 h, 50 µM; dose 0 = 100.00; read-out: Growth inhibition data
ENDPOINT_LABEL: viability at 24 h, 50 µM (%)
# value in %; strip the unit string

Data request: What value of viability at 24 h, 50 µM has been reported for the following molecule? CC(=NNC(N)=S)c1cccs1 [2-actpTS, 2-acetylthiophenethiosemicarbazone]
Data returned: 100

---

EXPERIMENTAL_DETAILS: Cytotoxicity assay (CellTiter 96 AQueous One) on Crl1790
Assay type: cell-based, human
STUDY_CONDITIONS: human, Crl1790 (CCD 841 CoN) normal colon cells; Crl1790, 24 h, 0.5 µM; dose 0 = 100.00; read-out: Growth inhibition data
ENDPOINT_LABEL: viability at 24 h, 0.5 µM (%)
Kindly provide the numeric value in % only, without the unit symbol.

Data request: I'd like to know its viability at 24 h, 0.5 µM. The compound in question is CC(=NNC(N)=S)c1cccs1 [2-actpTS, 2-acetylthiophenethiosemicarbazone]
Data returned: 100

---

EXPERIMENTAL_DETAILS: Cytotoxicity assay (CellTiter 96 AQueous One) on HFL1
Type: cell-based, human
STUDY_CONDITIONS: human, HFL1 normal lung cells; HFL1, 24 h, 10 µM; dose 0 = 100.00; read-out: Growth inhibition data
ENDPOINT_LABEL: viability at 24 h, 10 µM (%)
Give the quantity in %, number only.

Data request: viability at 24 h, 10 µM lookup needed for CC(=NNC(N)=S)c1cccs1 , thanks.
Data returned: 100

---

// reported inhibition at 100 µM per item
Tested on: A. flavus
EXPERIMENTAL_DETAILS: microbe, parasite or virus in culture
Type: cell-based, Aspergillus flavus
STUDY_CONDITIONS: Aspergillus flavus; 100 µM; read-out: G.I. (%) (A. flavus growth inhibition)
Report as a plain number; the unit % is understood.

O=c1cc(-c2ccccc2)oc2ccccc12: 83
NC(=S)NN=C(c1ccccc1)c1ccccc1: 53
NC(=S)N/N=C\C=C\c1ccccc1: 56

We now examine a further compound.
Data request: Entry O=Cc1ccc2c(c1)C(=O)c1ccccc1C2=O : reported inhibition at 100 µM = ?
Data returned: 58

---

EXPERIMENTAL_DETAILS: Cytotoxicity assay (CellTiter 96 AQueous One) on U937
Type: cell-based, human
STUDY_CONDITIONS: human, U937 cells (hematological tumor line); U937, 24 h, 1 µM; dose 0 = 100.00; read-out: Growth inhibition data
ENDPOINT_LABEL: viability at 24 h, 1 µM (%)
Provide the reading as a plain figure in %.

Data request: May I ask what viability at 24 h, 1 µM has been recorded for CC(=NNC(N)=S)c1cccs1 ?
Data returned: 100

---

Test system: A. flavus
EXPERIMENTAL_DETAILS: microbe, parasite or virus in culture
Type: cell-based, Aspergillus flavus
STUDY_CONDITIONS: 50 µM
ENDPOINT_LABEL: G.I. (%) (A. flavus growth inhibition)

Solved entries (count: 5):
NC(=S)NN=CCCc1ccccc1: 100%
NC(=S)NN=Cc1cccc(O)c1O: 53,0%
CCCCCC=CC=NNC(N)=S: 93,0%
NC(=S)NN=c1cc(-c2ccccc2)oc2ccccc12: 100%
CCCCCCCCC=NNC(N)=S: 95,0%

Data request: Please report the recorded G.I. (%) (A. flavus growth inhibition) for Cc1ccc(S(=O)(=O)OCc2ccc3c(c2)C(=O)c2ccccc2C3=O)cc1 [Tosylate ‐2‐methyleneanthraquinone] .
Data returned: 66,0%

Data request: Report G.I. (%) (A. flavus growth inhibition) for CCCCCCCC=NNC(N)=S please.
Data returned: 82,0%

Data request: Value lookup for G.I. (%) (A. flavus growth inhibition); key = CCC(/C=C/c1ccc(OC)cc1)=NNC(N)=S
Data returned: 62,0%

Data request: I would be grateful if you could share the reported G.I. (%) (A. flavus growth inhibition) for CCCCCCCCCCC=NNC(N)=S .
Data returned: 78,0%

Data request: Fill blank: measured G.I. (%) (A. flavus growth inhibition) of the compound NC(=S)NN=C1CCCCC1 is ____.
Data returned: 80,0%

Data request: Entry CCCCCCCCCC=NNC(N)=S : reported G.I. (%) (A. flavus growth inhibition) = ?
Data returned: 96,0%

---

EXPERIMENTAL_DETAILS: Cytotoxicity assay (CellTiter 96 AQueous One) on HFL1
Assay type: cell-based, human
STUDY_CONDITIONS: human, HFL1 normal lung cells; HFL1, 24 h, 0.5 µM; dose 0 = 100.00; read-out: Growth inhibition data
ENDPOINT_LABEL: viability at 24 h, 0.5 µM (%)
Return type: number; implicit unit %.

Data request: Entry CC(=NNC(N)=S)c1cccs1 : reported viability at 24 h, 0.5 µM = ?
Data returned: 100

---

System: aflatoxin accumulation by A. flavus
EXPERIMENTAL_DETAILS: microbe, parasite or virus in culture
Assay type: cell-based, Aspergillus flavus
STUDY_CONDITIONS: 100 µM
ENDPOINT_LABEL: A.I. (%) (aflatoxin accumulation inhibition)

The cases that follow already have their A.I. (%) (aflatoxin accumulation inhibition) on record.
CN(C)C(=S)NN=CC=Cc1ccccc1: 100%
CCCCC(=NNC(N)=S)c1ccccc1: 55,0%

Data request: What does the data say about its A.I. (%) (aflatoxin accumulation inhibition)? Entry: CCCCCCCCCC=NNC(N)=S
Data returned: 62,0%

Data request: # query: A.I. (%) (aflatoxin accumulation inhibition) of entry CCCCCCCCCCC=NNC(N)=S
Data returned: 93,0%

Data request: What value of measured A.I. (%) (aflatoxin accumulation inhibition) is listed for CCC=CCC1=C(C)CCC1=NNC(N)=S ?
Data returned: 90,0%

Data request: Using the record for CCCCCC1=C(C)CCC1=NNC(N)=S [Dihydrojasmone thiosemicarbazone] , report its A.I. (%) (aflatoxin accumulation inhibition).
Data returned: 63,2%

Data request: What value of A.I. (%) (aflatoxin accumulation inhibition) has been reported for the following molecule? CN(N=CC=Cc1ccccc1)C(N)=S
Data returned: 64,0%

Data request: Given the molecule CC(C)c1cccc(C=NN(C)C(N)=S)c1 , what is its reported A.I. (%) (aflatoxin accumulation inhibition)?
Data returned: 62,7%

Data request: State the recorded A.I. (%) (aflatoxin accumulation inhibition) for this entry: CN(C)C(=S)NN=Cc1ccccc1
Data returned: 90,0%

Data request: What value of A.I. (%) (aflatoxin accumulation inhibition) has been reported for the following molecule? C=C(C)C1CC=C(C=NNC(N)=S)CC1 (stereo not drawn)
Data returned: 87,3%

Data request: Please report the recorded A.I. (%) (aflatoxin accumulation inhibition) for CCCCCCCCC=NNC(N)=S .
Data returned: 100%

Data request: For CN(C)C(=S)NN=CC=Cc1ccccc1.CN(C)C(=S)NN=CC=Cc1ccccc1.[Zn+2] , what is its reported A.I. (%) (aflatoxin accumulation inhibition)?
Data returned: 100%

Data request: Which value of A.I. (%) (aflatoxin accumulation inhibition) has been reported for O=C(O)c1ccc2c(c1)C(=O)c1ccccc1C2=O in the records?
Data returned: 80,0%

Data request: # A.I. (%) (aflatoxin accumulation inhibition) lookup, item CC(C)c1ccccc1C=NNC(N)=S
Data returned: 97,0%

Data request: Which A.I. (%) (aflatoxin accumulation inhibition) is reported for this molecule? CCCCCCCC=NNC(N)=S
Data returned: 96,0%
